Target: His-DciA 4A2S (UniProt A0A0H3C5R2 1-179, H98A;Q99A;Q102A;R106A;M109S;L110S)
Sequence (A0A0H3C5R2 entry or part of it H98A;Q99A;Q102A;R106A;M109S;L110S): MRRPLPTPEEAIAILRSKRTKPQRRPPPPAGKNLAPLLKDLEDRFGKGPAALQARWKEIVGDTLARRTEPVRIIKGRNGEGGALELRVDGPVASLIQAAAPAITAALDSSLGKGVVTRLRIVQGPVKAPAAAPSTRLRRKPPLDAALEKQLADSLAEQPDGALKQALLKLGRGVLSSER
Assay: EMSA; 150 mM K-glutamate; EMSA: 20 mM Tris-HCl pH 7.5, 10 mM Mg acetate, 50 or 150 mM K-glutamate, 0.1 mg/ml BSA, 10% glycerol, 2 mM ATP, 12.5 nM DNA, 5 min on ice; M13 pull-down: Tris pH 7.5, 10 mM Mg acetate, 50 mM K-glutamate, 0.1 mM ATP, 0.1 mg/ml BSA, 30 C
Details: protein: recombinant; tags: N-terminal His6; label: 5'-FAM
parameter: pKd
Give bare numbers, as −log10 of the molar value.

Lab book: pKd of 80-mer oligo 1790 (ssDNA) DNA: TCCTTGTTATCCACAGGGCAGTTTTTTTTTTTTTTTTTTTTTTTTTTTTTTTTTTTTTTTTGTGCGATATAGTTCTCCGA noted as 6.94
